Cited source: the supplement of paper PMC12350171

# Tested on: P. vulgatus RND KO;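 note: active when median AUC fell below 0.1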
# Protocol: growth AUC normalised to DMSO control (median) (fraction of control); higher = less growth inhibition, active = hit call of the paper
# Assay Context: 20 µM
Structures can show the parent of a compound that is named as a salt.
Each item that follows carries a reported growth AUC normalised to DMSO control.
Answer with a bare number; do not write a unit.

CC[C@H](C)[C@H](NC(=O)[C@H](Cc1ccc(O)cc1)NC(=O)[C@@H](NC(=O)[C@H](CCCN=C(N)N)NC(=O)[C@@H](N)CC(=O)O)C(C)C)C(=O)N[C@@H](Cc1cnc[nH]1)C(=O)N1CCC[C@H]1C(=O)N[C@@H](Cc1ccccc1)C(=O)O [Angiotensin II (Human) Trifluoroacetic acid salt]    1.1
CO/N=C1\CN(c2nc3c(cc2F)c(=O)c(C(=O)O)cn3C2CC2)CC1CN (stereo unspecified) [Gemifloxacin mesylate]    0.0152
O=c1oc2cc(O)ccc2s1    1.02

// returns reported growth AUC normalised to DMSO control for input `CC[C@H](c1ccc(O)cc1)[C@@H](CC)c1ccc(O)cc1`
0.766

// returns reported growth AUC normalised to DMSO control for input `OC(Cn1cncn1)(Cn1cncn1)c1ccc(F)cc1F`
1.01

// returns reported growth AUC normalised to DMSO control for input CC(N)CCCC(C)(C)O (stereo unspecified) [Heptaminol hydrochloride]
1.01
